system.tested: Ubiquitin carboxyl-terminal hydrolase 2 (Homo sapiens)
protocol: Ub-rhodamine 110 based assay for inhibitors Ubiquitin-specific Protease USP2a; also: nearly all actives have a fitted effect of over 50% in size
condition.description: USP2a Ub-rhodamine110 cleavage, fluorescence; series mostly up to 38.3 µM
Records with an inconclusive call do not appear. Active and inactive are the calls of the source. Calls follow the shape of the dose curve; as a rule, active = well fitted inhibition curve with a large enough effect; inconclusive = small, poorly fitted or top-dose-only effect, or effect the other way; inactive = flat fitted curve, though single readings scatter.
In this exercise, the only acceptable responses are active, inactive

See these solved cases before continuing.
COc1ccc(NC(=O)c2cc(-c3ccco3)nc3ccccc23)cc1S(=O)(=O)N1CCOCC1 : active
CCOC(=O)c1[nH]c2ccc(OC)cc2c1NC(=O)CCN1CCCC(C)C1 (centres undefined) : inactive
Cc1cc(NC(=O)c2cccc(S(=O)(=O)N(C)C)c2)n(-c2ccccn2)n1 : inactive
O=C(COc1ccccc1)NCc1nnc(SCC(=O)Nc2nccs2)n1-c1ccccc1 : inactive
O=C(CCSCc1ccc(Cl)cc1)NCCc1ccccc1 : inactive

Exercise: What was the test verdict on COc1ccc(NC(=S)NC(=O)/C=C/c2ccco2)cc1 ?
Solution: inactive

Exercise: What was the test verdict on COc1ccc(/C=C2\SC(=O)N(CC(=O)Nc3cccc(C)c3)C2=O)cc1O ?
Solution: active

Exercise: What was the test verdict on CC(C)OCCCNC(=O)CN1C(=O)CC(C)(C)S(=O)(=O)c2ccccc21 ?
Solution: inactive

Exercise: What was the test verdict on Cc1nn(C)cc1CNC(=O)c1ccc(Br)o1 ?
Solution: inactive

Exercise: What was the test verdict on C=CCOc1cccc(C2C(C(=O)c3ccco3)=C(O)C(=O)N2CCN(CC)CC)c1 (centres undefined) ?
Solution: inactive

Exercise: What was the test verdict on COc1ccc(CN(Cc2cc3cc(C)ccc3[nH]c2=O)C(=O)N(C)C)cc1 ?
Solution: inactive

---

system.tested: Ubiquitin carboxyl-terminal hydrolase 2 (Homo sapiens) (UniProt O75604)
Sequence (O75604 whole entry, looked up): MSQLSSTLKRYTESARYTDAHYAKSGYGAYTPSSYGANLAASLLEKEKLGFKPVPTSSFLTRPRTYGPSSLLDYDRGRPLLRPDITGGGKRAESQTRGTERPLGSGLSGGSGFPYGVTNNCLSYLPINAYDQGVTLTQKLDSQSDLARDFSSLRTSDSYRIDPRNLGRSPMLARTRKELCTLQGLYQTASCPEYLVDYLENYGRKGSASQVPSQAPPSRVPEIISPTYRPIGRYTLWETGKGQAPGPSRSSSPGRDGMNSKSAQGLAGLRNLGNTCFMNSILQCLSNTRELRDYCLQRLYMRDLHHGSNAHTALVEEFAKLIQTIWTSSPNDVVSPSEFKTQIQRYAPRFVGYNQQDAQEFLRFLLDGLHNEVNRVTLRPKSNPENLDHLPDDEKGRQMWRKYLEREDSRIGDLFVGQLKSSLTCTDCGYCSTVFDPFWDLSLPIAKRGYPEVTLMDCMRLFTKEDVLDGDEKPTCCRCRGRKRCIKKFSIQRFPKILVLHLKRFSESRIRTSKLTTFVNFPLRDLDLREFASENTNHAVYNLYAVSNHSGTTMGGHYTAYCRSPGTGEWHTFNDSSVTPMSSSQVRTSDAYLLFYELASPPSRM
protocol: Ub-rhodamine 110 based assay for inhibitors Ubiquitin-specific Protease USP2a; also: nearly all actives have a fitted effect of over 50% in size
condition.description: USP2a Ub-rhodamine110 cleavage, fluorescence; series mostly up to 38.3 µM
Inconclusive results are not listed. Active and inactive are the calls of the source. The call rests on the fitted dose curve; in most records, active means well fitted inhibition curve with a large enough effect; inconclusive means small, poorly fitted or top-dose-only effect, or effect the other way; inactive means flat fitted curve, though single readings scatter.
In this exercise, the only acceptable responses are active, inactive

See these solved cases before continuing.
Cc1noc(/C=C/NCc2cccnc2)c1S(=O)(=O)N(C)CC(=O)N1CCc2ccccc21 : inactive
NS(=O)(=O)c1ccc(N=Nc2c(O)c(C(=O)O)cc3ccccc23)cc1 : active

Attention now turns to another entry.
Exercise: What was the test verdict on Cn1c(C(=O)NCCCN2CCN(c3ccccc3F)CC2)cc2c(=O)n(C)c3ccccc3c21 ?
Solution: inactive

---

system.tested: Ubiquitin carboxyl-terminal hydrolase 2 (Homo sapiens) (UniProt O75604)
protocol: Ub-rhodamine 110 based assay for inhibitors Ubiquitin-specific Protease USP2a; also: nearly all actives have a fitted effect of over 50% in size
condition.description: USP2a Ub-rhodamine110 cleavage, fluorescence; series mostly up to 38.3 µM
Inconclusive results are not listed. Calls of active or inactive are those of the source. The call rests on the fitted dose curve; in most records, active means well fitted inhibition curve with a large enough effect; inconclusive means small, poorly fitted or top-dose-only effect, or effect the other way; inactive means flat fitted curve, though single readings scatter.
In this exercise, the only acceptable responses are true (1) = active, false (0) = inactive

CCNC1=C(Cl)C(=O)c2ccccc2C1=O : false (0)
CC(OC(=O)CN(C)S(=O)(=O)c1ccc(Cl)cc1)C(=O)Nc1ccc(N2CCOCC2)cc1 (stereo not drawn) : false (0)
CN(C)c1ccc(C(CN)c2c[nH]c3ccccc23)cc1 (stereo not drawn) : false (0)
c1ccc(CN2CCN(CCOCCOc3cccc4ccccc34)CC2)cc1 : false (0)

Exercise: What was the test verdict on N#Cc1cccc(C(=O)N(CCc2ccccc2)Cc2cccs2)c1 ?
Solution: false (0)

Exercise: What was the test verdict on CC(=O)c1ccc2c(c1)C1C=CCC1C(C(=O)O)N2 (stereo not drawn) ?
Solution: true (1)

Exercise: What was the test verdict on CN(C)C=Nc1ncc2c3ccccc3n(CCN(C)C)c2c1C#N ?
Solution: false (0)

Exercise: What was the test verdict on CCCCCCCCCCOC(=O)Cn1c(COc2cccc(C)c2)[n+](C)c2ccccc21 ?
Solution: false (0)

Exercise: What was the test verdict on CN(C)CCCN1C(=O)C(=O)/C(=C(/O)c2ccncc2)C1c1cccnc1 (stereo not drawn) ?
Solution: false (0)

Exercise: What was the test verdict on COc1ccccc1C(=O)n1nc(-c2cccnc2)nc1NCc1ccccc1 ?
Solution: false (0)

Exercise: What was the test verdict on CC(C)(C)C1CCC(=NNC(=O)CN(c2ccccc2)S(C)(=O)=O)CC1 (stereo not drawn) ?
Solution: false (0)

Exercise: What was the test verdict on CC1CCCCC1NC(=O)CSCC(=O)O (stereo not drawn) ?
Solution: false (0)

Exercise: What was the test verdict on Cc1ccc(S(=O)(=O)N2[C@@H](c3ccc(Cl)cc3)C(C(=O)O)=CC[C@H]2c2ccc(C(C)C)cc2)cc1 ?
Solution: true (1)

Origin of the recorded values: PubChem BioAssay AID493170
